- TARGET: T1, gp130 on HepG2 B6 cells (UniProt P40189 23-918, limits assumed)
- T1 sequence (looked up): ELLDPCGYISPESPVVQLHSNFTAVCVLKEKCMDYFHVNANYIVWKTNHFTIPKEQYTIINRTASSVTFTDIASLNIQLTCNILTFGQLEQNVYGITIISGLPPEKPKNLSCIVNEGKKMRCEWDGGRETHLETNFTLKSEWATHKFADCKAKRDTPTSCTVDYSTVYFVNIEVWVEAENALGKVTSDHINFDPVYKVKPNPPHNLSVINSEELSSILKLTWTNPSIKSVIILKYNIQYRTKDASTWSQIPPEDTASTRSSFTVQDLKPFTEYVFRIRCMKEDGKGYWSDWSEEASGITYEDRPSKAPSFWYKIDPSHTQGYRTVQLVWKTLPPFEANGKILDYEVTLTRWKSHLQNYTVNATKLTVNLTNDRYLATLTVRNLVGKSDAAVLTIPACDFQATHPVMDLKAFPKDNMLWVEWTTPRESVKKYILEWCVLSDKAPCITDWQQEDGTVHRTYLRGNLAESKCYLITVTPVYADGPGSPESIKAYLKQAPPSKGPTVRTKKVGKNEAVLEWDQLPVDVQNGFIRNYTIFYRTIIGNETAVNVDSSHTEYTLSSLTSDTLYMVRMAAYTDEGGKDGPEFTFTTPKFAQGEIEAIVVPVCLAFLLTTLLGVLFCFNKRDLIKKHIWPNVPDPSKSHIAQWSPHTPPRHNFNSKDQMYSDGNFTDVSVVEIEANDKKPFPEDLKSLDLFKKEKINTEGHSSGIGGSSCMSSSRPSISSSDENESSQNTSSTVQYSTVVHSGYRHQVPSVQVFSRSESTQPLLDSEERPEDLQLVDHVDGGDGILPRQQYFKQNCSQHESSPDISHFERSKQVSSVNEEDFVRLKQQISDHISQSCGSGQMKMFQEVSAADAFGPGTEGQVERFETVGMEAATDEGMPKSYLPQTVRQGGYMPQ
- ASSAY SUMMARY: cell-based or functional assay
# sPAP HepG2 B6 assay: Expt 1 EC50 values compiled below
Form entry: value (µg/mL) — number only.

# BINDER, OBSERVED RESULT
rows = [
    ("OSM-GST mutant Q18A (ligand, Alanine mutant of m4; also called (11)Q18A; 11 Q18A; not shown: Its linker is left out) AAIGSCSKEYRVLLGQLAKQTDLMQDTSRLLDPYIRIQGLDVPKLREHCRERPGAFPSEETLRGLGRRGFLQTLNATLGCVLHRLADLEQRLPKAQDLERSGLNIEDLEKLQMARPNILGLRNNIYCMAQLLDNSDTAEPTKAGRGASQPPTPTPASDAFQRKLEGCRFLHGYHRFMHSVGRVFSKWGESPNRSRR", 0.0202),
    ("OSM-GST mutant G15A (ligand, Alanine mutant of m4; also called (8)G15A; 8 G15A; not shown: Its linker is left out) AAIGSCSKEYRVLLAQLQKQTDLMQDTSRLLDPYIRIQGLDVPKLREHCRERPGAFPSEETLRGLGRRGFLQTLNATLGCVLHRLADLEQRLPKAQDLERSGLNIEDLEKLQMARPNILGLRNNIYCMAQLLDNSDTAEPTKAGRGASQPPTPTPASDAFQRKLEGCRFLHGYHRFMHSVGRVFSKWGESPNRSRR", 0.021),
    ("OSM-GST mutant L13A (ligand, Alanine mutant of m4; also called (6)L13A; 6 L13A; not shown: Its linker is left out) AAIGSCSKEYRVALGQLQKQTDLMQDTSRLLDPYIRIQGLDVPKLREHCRERPGAFPSEETLRGLGRRGFLQTLNATLGCVLHRLADLEQRLPKAQDLERSGLNIEDLEKLQMARPNILGLRNNIYCMAQLLDNSDTAEPTKAGRGASQPPTPTPASDAFQRKLEGCRFLHGYHRFMHSVGRVFSKWGESPNRSRR", 0.0657),
    ("OSM-GST mutant K19A (ligand, Alanine mutant of m4; also called (12)K19A; 12 K19A; not shown: Its linker is left out) AAIGSCSKEYRVLLGQLQAQTDLMQDTSRLLDPYIRIQGLDVPKLREHCRERPGAFPSEETLRGLGRRGFLQTLNATLGCVLHRLADLEQRLPKAQDLERSGLNIEDLEKLQMARPNILGLRNNIYCMAQLLDNSDTAEPTKAGRGASQPPTPTPASDAFQRKLEGCRFLHGYHRFMHSVGRVFSKWGESPNRSRR", 0.0236),
]

Can you look up the measured sPAP HepG2 B6 assay: Expt 1 EC50 of OSM-GST mutant E9A (ligand, not shown: a dimerising Fc or GST; large carriers; small tags and cut ends, Alanine mutant of m4; also called (3)E9A; 3 E9A) AAIGSCSKAYRVLLGQLQKQTDLMQDTSRLLDPYIRIQGLDVPKLREHCRERPGAFPSEETLRGLGRRGFLQTLNATLGCVLHRLADLEQRLPKAQDLERSGLNIEDLEKLQMARPNILGLRNNIYCMAQLLDNSDTAEPTKAGRGASQPPTPTPASDAFQRKLEGCRFLHGYHRFMHSVGRVFSKWGESPNRSRR for me?
0.0236

Can you look up the measured sPAP HepG2 B6 assay: Expt 1 EC50 of wild type OSM-GST fusion (ligand, pGEX-derived fusion; also called wt OSM-GST; GST-hOSM; not shown: glutathione S-transferase (GST) encoded by modified pGEX-3X (Pharmacia), N-terminal, up to the Factor Xa site region sho) AAIGSCSKEYRVLLGQLQKQTDLMQDTSRLLDPYIRIQGLDVPKLREHCRERPGAFPSEETLRGLGRRGFLQTLNATLGCVLHRLADLEQRLPKAQDLERSGLNIEDLEKLQMARPNILGLRNNIYCMAQLLDNSDTAEPTKAGRGASQPPTPTPASDAFQRKLEGCRFLHGYHRFMHSVGRVFSKWGESPNRSRR for me?
0.024
